# Test system: MOLM14
# ASSAY: cell viability relative to vehicle control; higher = less cytotoxic;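 note: after 48 h exposure read by CellTiter-Glo luminescence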
# CONDITIONS_USED: 10 µM; SRSF2 genotype: SRSF2 wt/wt
Structures can show the parent of a compound that is named as a salt.
REPORTED_METRIC: cell viability (%)
Expressed in %, but write only the number.

Worked examples, 2 compounds total:
COMPOUND	cell viability (%)
COc1cc2c(N3CCN(C(=O)Nc4ccc(OC(C)C)cc4)CC3)ncnc2cc1OCCCN1CCCCC1 [Tandutinib (MLN518)]	14.4
CC(C)CCNC(=O)[C@H](CC(C)C)NC(=O)[C@H]1O[C@@H]1C(=O)O [Loxistatin Acid (E-64C)]	104

Query string: What does the data say about its cell viability? Entry: COc1cc(C2Oc3cc([C@H]4Oc5cc(O)cc(O)c5C(=O)[C@@H]4O)ccc3OC2CO)ccc1O (some centres not stated) [Silibinin (Silybin)]
Result string: 98.4

Query string: What does the data say about its cell viability? Entry: `CC(C)c1onc(-c2c(Cl)cccc2Cl)c1COc1ccc(/C=C/c2cccc(C(=O)O)c2)c(Cl)c1`
Result string: 97.3

Query string: What does the data say about its cell viability? Entry: CO/N=C(\C(=O)N[C@@H]1C(=O)N2C(C(=O)[O-])=C(C[n+]3ccn4ncccc43)CS[C@H]12)c1nsc(N)n1 [Cefozopran hydrochloride]
Result string: 106

Query string: What does the data say about its cell viability? Entry: COc1cc2oc(-c3ccc(O)cc3)cc(=O)c2c(O)c1[C@@H]1O[C@H](CO)[C@@H](O)[C@H](O)[C@H]1O[C@@H]1O[C@H](CO)[C@@H](O)[C@H](O)[C@H]1O [Spinosin]
Result string: 104

Query string: What does the data say about its cell viability? Entry: Cc1cc(NS(=O)(=O)c2ccc(N)cc2)no1 [Sulfamethoxazole sodium]
Result string: 104

###

Each entry below carries its recorded cell viability.
# Tested on: OCI-AML2
# ASSAY: cell viability relative to vehicle control; higher = less cytotoxic
# CONDITIONS_USED: 10 µM; SRSF2 genotype: P95H/wt
Structures can show the parent of a compound that is named as a salt.
Expressed in %, but write only the number.

Worked examples, 6 compounds total:
COMPOUND	NUMERIC_READOUT
CCOC(=O)C1=C(N)Oc2ccc(Br)cc2C1C(C#N)C(=O)OCC (stereo not given)	67.4
Cc1nccn1CC1CCc2c(c3ccccc3n2C)C1=O (stereo not given) [Ondansetron Hydrochloride Dihydrate]	88.6
CN1CCN(C(=O)c2ccc(-c3ccc4c(C=O)c(O)ccc4c3)s2)CC1	72.9
CCCOC(C(=O)OC1CCN(C)CC1)(c1ccccc1)c1ccccc1 [Propiverine hydrochloride]	72.1
O=C(Oc1cccc(F)c1OC(=O)c1cccc(O)c1)c1cccc(O)c1	92.6
CC(=O)N1c2ccc(-c3ccc(C(=O)O)cc3)cc2[C@H](Nc2ccc(Cl)cc2)C[C@@H]1C	7.87

Query string: What does the data say about its cell viability? Entry: COC[C@H](NC(=O)c1cnc(C)s1)C(=O)N[C@@H](COC)C(=O)N[C@@H](Cc1ccccc1)C(=O)[C@@]1(C)CO1 [Oprozomib (ONX 0912)]
Result string: 0.2

Query string: What does the data say about its cell viability? Entry: CN(C/C=C/C#CC(C)(C)C)Cc1cccc2ccccc12 [Terbinafine hydrochloride (Lamisil)]
Result string: 87.4

Query string: What does the data say about its cell viability? Entry: C[C@](N)(Cc1ccc(O)c(O)c1)C(=O)O [Methyldopa (Aldomet)]
Result string: 98.4

Query string: What does the data say about its cell viability? Entry: COC(=O)Nc1nc2cc(C(=O)c3cccs3)ccc2[nH]1 [Nocodazole]
Result string: 5.25

Query string: What does the data say about its cell viability? Entry: `CCc1c(O)cc(O)c(C(=O)c2ccc(OCCN3CCOCC3)c(OC)c2)c1CC(=O)N(CCOC)CCOC`
Result string: 19.3

Query string: What does the data say about its cell viability? Entry: `CO[C@@H](C)Cn1c(=O)n(C)c2cnc3ccc(-c4cncc(C(C)(C)O)c4)cc3c21`
Result string: 5.3

Query string: What does the data say about its cell viability? Entry: O=C(/C=C/C=C/c1ccc2c(c1)OCO2)N1CCCCC1 [Piperine (1-Piperoylpiperidine)]
Result string: 85.6

Query string: What does the data say about its cell viability? Entry: COc1ccccc1N1CCN(CCCNc2cc(=O)n(C)c(=O)n2C)CC1 [Urapidil hydrochloride]
Result string: 96.8
